- experimental_details: NCI Yeast Anticancer Drug Screen. Data for the mec2-1 strain (AID 157)
- recorded_conditions: S. cerevisiae mec2-1 strain, at 50.0 µM, hits give high values
The panel holds about 79,000 compounds, 15% with a hit somewhere; the sample as a whole holds those more often.
Quick reference for growth inhibition among some compounds
experimental_endpoint: growth inhibition (%)

In [3]: df
Out[3]:
                                    compound  experimental_endpoint  result_units  number
 0       c1ccc(CCN(CCc2ccccn2)CCc2ccccn2)nc1      growth inhibition             %   -13.6
 1        CC(C)CCNC(=O)CS(=O)(=O)c1ccc(N)cc1      growth inhibition             %   -3.05
 2  Clc1ccc(C2SC=Cc3ccccc32)cc1 (configuration not stated)      growth inhibition             %    33.8
 3  CN(C)CCCC(O)c1cccc2ccccc12 (configuration not stated)      growth inhibition             %   -12.6
 4         O=[N+]([O-])c1ccc(C=Nc2ccccc2)cc1      growth inhibition             %    24.1
 5   N#C/C(=C\c1ccco1)c1ccc([N+](=O)[O-])cc1      growth inhibition             %    15.1
 6  CCOC(=S)SC1OC(COC(C)=O)C(OC(C)=O)C(OC(C)=O)C1OC(C)=O (configuration not stated)      growth inhibition             %    11.4
 7  O=C(Nc1cc2cc([N+](=O)[O-])ccc2oc1=O)c1cccs1      growth inhibition             %   -30.7
 8                   CC(=O)/C=C\c1cc(C)ccc1O      growth inhibition             %    22.1
 9                  CCC(=O)N1CCN(C(=O)CC)CC1      growth inhibition             %   -2.45
10  CC(C)NC(=O)OCc1c(COC(=O)NC(C)C)n(C)c2c1ccc1ccccc12      growth inhibition             %    84.8
11  COC(C(=O)[O][Ge]([CH3])([CH3])[CH3])c1ccccc1 (configuration not stated)      growth inhibition             %   -17.8
12  CN(C)Cc1c(-c2ccc(Br)cc2)oc(-c2ccc(Br)cc2)c1Br      growth inhibition             %    -8.7
13  C[n+]1c(-c2ccc(/C=N/NC(=O)C(=O)N/N=C/c3ccc(-c4cn5ccsc5[n+]4C)cc3)cc2)cn2ccsc21      growth inhibition             %      88
14  CCSc1cc2c(cc1O)CC[C@@H]1[C@@H]2CC[C@]2(C)[C@@H](O)CC[C@@H]12      growth inhibition             %   -18.1
15  COC1OC(COC(=O)c2ccccc2)C(OC(=O)c2ccccc2)C(OC(=O)c2ccccc2)C1OC(=O)c1ccccc1 (configuration not stated)      growth inhibition             %   -30.8
16  COC1OC(CO)C(O)C(NC(=O)OCc2ccccc2)C1O (configuration not stated)      growth inhibition             %    -1.7
17                    COc1ccc2oc(=S)[nH]c2c1      growth inhibition             %     8.6
18                             CC(C)CNC(=O)O      growth inhibition             %    -7.1
19                      Nc1cccc(C(F)(F)F)c1N      growth inhibition             %   -15.4
20  O=C(Nc1ccccc1C(=O)N/N=C/c1ccccc1O)c1ccccc1Cl      growth inhibition             %      91
21               CCOC(=O)c1cccc(NC(=O)CCl)c1      growth inhibition             %    30.1
22                          C1CCC2(CC1)CCCN2      growth inhibition             %    3.35
23           CCN1C(=NCCO)NS(=O)(=O)c2ccccc21      growth inhibition             %     3.4
24                        CCCc1c(O)ccc(C)c1C      growth inhibition             %     2.5
25         O=C(NNC(=S)Nc1cccc(Cl)c1)c1ccncc1      growth inhibition             %     6.5
26  N#Cc1c(C(F)(F)F)cc(-c2cccs2)nc1SC(C(=O)Nc1c(F)cccc1F)c1ccccc1 (configuration not stated)      growth inhibition             %   -19.6
27     N#C/C(=C/c1cccc(Oc2ccccc2)c1)c1ccccc1      growth inhibition             %   -28.2
28  COc1ccc2cc1Oc1cc3c(cc1OC)CC[N+](C)(C)C3Cc1ccc(cc1)Oc1c(OC)c(OC)cc3c1C(C2)[N+](C)(C)CC3 (configuration not stated)      growth inhibition             %   -16.4
29  CCC(CO)Nc1nncc2ccccc12 (configuration not stated)      growth inhibition             %   -3.45
30  CN(CCc1ccccn1)/[N+]([O-])=N/O (tested in a mixture with another compound)      growth inhibition             %   -36.9
31         CN(C)c1ccc(-c2nc(N)nc3c2CCCC3)cc1      growth inhibition             %   -12.2
32  CC1CCC(Oc2nc3c(c(=O)n(C)c(=O)n3C)n2C)CC1 (configuration not stated)      growth inhibition             %   -2.85
33  CC1=CC(=O)CC2(C)CCC(C(C)CC(=O)CC(C)C)CC12 (configuration not stated)      growth inhibition             %    91.3
34                  CCCCCC/C(C=O)=C\c1ccccc1      growth inhibition             %    17.6
35            Cc1ccc(C(=O)OC(C)C)cc1N=NN(C)C      growth inhibition             %   -11.4
36  CCNC(CC(N)=O)C(=O)O (configuration not stated)      growth inhibition             %   -3.75
37                     CCCCN(C(C)=O)c1ccccc1      growth inhibition             %    9.45
38  CCCNC(=O)N(CCN(C)C)S(=O)(=O)c1ccc(Cl)cc1      growth inhibition             %   -6.75
39  CCC(c1ccco1)C(C#N)C(=O)OC(C)(C)C (configuration not stated)      growth inhibition             %   -21.9
40  O=C(OCc1ccc([N+](=O)[O-])cc1)N1c2ccccc2[C@@]23O[C@]24CCC[C@H]3C#C/C=C\C#C[C@H]14      growth inhibition             %    25.2
41                Cn1nnc2c1C(=O)c1ccccc1C2=O      growth inhibition             %     -14
42  Cc1[nH]c(=O)[nH]c(=O)c1/C=C/C(=O)NC(CO)CS(=O)C(C)C (configuration not stated)      growth inhibition             %    63.5
43  CCC(C(O)c1ccc(Cl)cc1)C(O)(C(F)(F)F)C(F)(F)F (configuration not stated)      growth inhibition             %    99.5
44  CC1=C(C(=O)NNC(=O)c2ccccc2)CC(C(=O)NNC(=O)c2ccccc2)=C(C)N1      growth inhibition             %    14.5
45              CN(C)c1ccc(-c2cccc[n+]2C)cc1      growth inhibition             %    12.2
46       CCOC(=O)c1c(C)[nH]c(-c2csc(N)n2)c1C      growth inhibition             %   -1.65
